# Test system: NA constricted rabbit aorta
# assay-info: Relaxing effects on vascular smooth muscle constricted by noradrenaline (NA) in vitro
# study-conditions: Oryctolagus cuniculus; relaxation of rabbit aorta constricted by noradrenaline (10^−5 mol/L); mean±SEM, n=5
# Description: Adrenaline hydrochloride (AD) (10^−5 mol/L) was added into a bath tube to induce constriction, when maximal constriction was achieved, the sample was completely flushed, K-H solution was changed for every 20 min. Contents in the tube was balanced for 60 min, when baseline recovered to be stable, noradrenaline bitartrate (NA) (10^−5 mol/L) was added to induce constriction. […]
reported-metric: EC50 (µM)

Study these solved cases before continuing.
c1ccc2c(C3CCN(CCCCn4nnc5ccccc54)CC3)cccc2c1 : 45.7
Fc1ccc2c(C3CCN(CCCn4nnc5ccc(Cl)cc54)CC3)noc2c1 : 6.03

A. Clc1cccc(C2CCN(CCCCn3nnc4ccccc43)CC2)c1
B. c1coc(C2CCN(CCCCn3cnc4ccccc43)CC2)c1
Which numeric EC50 is bigger, that of A or that of B ? Return value: the label identifying the chosen record. B
(B: 58.9 µM, A: 5.37 µM)
